Let's look at some proteins and their measured Percent cleavage.
molecular target: AxCT mask27 EGFR EH104 L063 version 1
Give the number; % is assumed, so skip it.

1) MMP-12 (protein) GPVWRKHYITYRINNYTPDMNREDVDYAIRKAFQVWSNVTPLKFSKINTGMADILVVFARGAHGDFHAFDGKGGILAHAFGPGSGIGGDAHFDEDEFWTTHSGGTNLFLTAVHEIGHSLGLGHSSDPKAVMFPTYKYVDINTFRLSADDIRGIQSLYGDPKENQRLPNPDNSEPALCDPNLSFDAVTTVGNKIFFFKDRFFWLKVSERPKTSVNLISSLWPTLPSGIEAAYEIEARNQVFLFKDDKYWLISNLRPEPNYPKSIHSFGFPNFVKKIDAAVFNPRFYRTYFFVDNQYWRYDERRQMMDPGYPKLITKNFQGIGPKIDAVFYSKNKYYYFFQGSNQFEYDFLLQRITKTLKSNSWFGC | 31

Consider the record given below.
Quick note, Percent cleavage for MMP-7 (protein) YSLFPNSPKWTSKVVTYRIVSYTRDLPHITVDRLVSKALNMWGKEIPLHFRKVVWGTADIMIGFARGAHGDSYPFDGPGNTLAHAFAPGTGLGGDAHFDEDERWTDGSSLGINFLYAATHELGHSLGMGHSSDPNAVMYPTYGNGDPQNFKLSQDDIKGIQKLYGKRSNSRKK landed at 37
